B1: CPEB3 Ribozyme (parent)
chain: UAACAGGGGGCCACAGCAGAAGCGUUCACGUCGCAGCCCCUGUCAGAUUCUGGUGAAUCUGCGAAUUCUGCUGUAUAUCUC

variants of: B1; test: self-cleavage, relative activity (ratio to wild type); higher = more cleavage; in vitro, sequencing
self-cleavage vs 0.3: at or above is satisfied, below is not satisfied.

{"seqString": "UAACAGGGGGCCACAGCAGAAGCGUUCACGUCGCAGCCCCUGUCAGAUUCUGGUGAAUCUGCGCUUUCUGCUGUAUAUCUC [A64C A65U]", "answerLabel": "not satisfied"}
{"seqString": "UAACAGGGGGCCACAGCAGAAGCAUUCACGUCGCAGCCCCUGUCAGAUUCUGGUGAAUCUGCGAAUUCUGCUGUAUAUCUC [G24A]", "answerLabel": "not satisfied"}
{"seqString": "UAACAGGGGCCCACAGCAGAAGCGUUCACGUCGCAGCCCCUGUCAGUUUCUGGUGAAUCUGCGAAUUCUGCUGUAUAUCUC [G10C A47U]", "answerLabel": "not satisfied"}
{"seqString": "UAACAGGGGGCCACGGCAGAAGCGUUCACUUCGCAGCCCCUGUCAGAUUCUGGUGAAUCUGCGAAUUCUGCUGUAUAUCUC [A15G G30U]", "answerLabel": "satisfied"}
{"seqString": "UAACAGGGGGCCACAGCAGGAGCGUUCACGUCGCAGCCCCUGUCAGAUUCUGGUGAAUCUGCGAAUUCUGCUGUACAUCUC [A20G U76C]", "answerLabel": "satisfied"}
{"seqString": "CAACAGGGGGCCACAGCAGAAGCGUUCACGUCGCAGCCCCUGUCAGAUUCUGGUGAACCUGCGAAUUCUGCUGUAUAUCUC [U1C U58C]", "answerLabel": "satisfied"}
{"seqString": "UAACAGGGGGCCACAGCAGAAGCGUUCACGUCUCAGCCCCUGUCAGAUUCUGGUGAAUCUGCGAAAUCUGCUGUAUAUCUC [G33U U66A]", "answerLabel": "not satisfied"}
{"seqString": "UAACAGGGGGCCAUAGCAGAAGCGUUCACGUCGCAGCCCCUGUCAGUUUCUGGUGAAUCUGCGAAUUCUGCUGUAUAUCUC [C14U A47U]", "answerLabel": "satisfied"}
{"seqString": "UACCAGGGGGCCACAGCAGAAGCGUUCACGUCGCAGCCCCUGUCAGAUUCUGGUGAAUCUGUGAAUUCUGCUGUAUAUCUC [A3C C62U]", "answerLabel": "not satisfied"}
{"seqString": "UAUCAGGGGGCCACAGCUGAAGCGUUCACGUCGCAGCCCCUGUCAGAUUCUGGUGAAUCUGCGAAUUCUGCUGUAUAUCUC [A3U A18U]", "answerLabel": "satisfied"}
{"seqString": "UAACAGGGGGCUACAGCAGAAGCGUUCAUGUCGCAGCCCCUGUCAGAUUCUGGUGAAUCUGCGAAUUCUGCUGUAUAUCUC [C12U C29U]", "answerLabel": "satisfied"}
{"seqString": "UAACAGGGGGCCACAGCAGAAGCGUUCACGUCGCGGCCCCUGUCAGAUUCUGGUGAAUCUGCGAAUUCUUCUGUAUAUCUC [A35G G70U]", "answerLabel": "satisfied"}
{"seqString": "UAACAGGGUGCCACAGCAGAAGCGUUCACGUCGCAGCCCCUGUCAGAUUCUGGUGAAUCUGCGAAUUCUGCUGUGUAUCUC [G9U A75G]", "answerLabel": "not satisfied"}
{"seqString": "UAACAGGGGGCCUCAGCAGAAGCGUUCACGUCGCAGUCCCUGUCAGAUUCUGGUGAAUCUGCGAAUUCUGCUGUAUAUCUC [A13U C37U]", "answerLabel": "satisfied"}
{"seqString": "UAACAGGGGGCCACAGCAGAAGCGUUCACGUCGCAGCCCCUGUCAGAUUCUGGUGAAUCUACAAAUUCUGCUGUAUAUCUC [G61A G63A]", "answerLabel": "satisfied"}
